Origin of values: ChEMBL document CHEMBL4184133

Quick reference: IC50 of the listed items.
# Test system: Neutrophil
# Assay overview: Anti-inflammatory activity in human neutrophils assessed as inhibition of fMLP/CB-induced superoxide anion generation by measuring superoxide dismutase SOD-inhibitable ferricytochrome c reduction incubated for 5 mins before fMLP/CB stimulation for 3 mins by spectrophotometry
# Type: functional, cell-based
Property measured: IC50

>  <Smiles str>
C=C1CC[C@H]2[C@@](C)(CO)CCC[C@]2(C)[C@H]1CC/C(C)=C\C(=O)O

>  <Property measured>
IC50

>  <Result>
2.5 µg/mL

$$$$
>  <Smiles str>
C=C1CC[C@H]2[C@](C)(CO)CCC[C@]2(C)[C@H]1CC/C(C)=C/C(=O)O

>  <Property measured>
IC50

>  <Result>
> 10 µg/mL

$$$$
>  <Smiles str>
COc1cc(C[C@H]2COC(=O)[C@@H]2Cc2ccc(O)c(OC)c2)ccc1O

>  <Property measured>
IC50

>  <Result>
4.3 µg/mL

$$$$
>  <Smiles str>
CNC(=O)c1cc(Oc2ccc(NC(=O)Nc3ccc(Cl)c(C(F)(F)F)c3)cc2)ccn1

>  <Property measured>
IC50

>  <Result>
1.5 µg/mL

$$$$
>  <Smiles str>
COc1cc([C@H]2OC[C@H]3[C@@H]2CO[C@H]3c2ccc(OC)c(OC)c2)ccc1O

>  <Property measured>
IC50

>  <Result>
6.4 µg/mL

$$$$
>  <Smiles str>
COc1cc([C@H]2OC[C@H]3[C@@H]2CO[C@H]3c2ccc(O)c(OC)c2)ccc1O

>  <Property measured>
IC50

>  <Result>
3.4 µg/mL

$$$$
>  <Smiles str>
C[C@H]1[C@H](C)CC[C@]2(C(=O)O)CC[C@]3(C)C(=CC[C@@H]4[C@@]5(C)CC[C@H](O)C(C)(C)[C@@H]5CC[C@]43C)[C@H]12

>  <Property measured>
IC50

>  <Result>
0.6 µg/mL

$$$$
